Origin of the recorded values: PubChem BioAssay (NCI)

system: BT-549 breast; assay: NCI tumour cell line growth inhibition, 48 h; in the data active = GI50 below about 0.43 µM; inactive = the rest
The categories you may choose from are yes (1) = active, no (0) = inactive

Solved cases below.
[
  {
    "Compound": "O=C(OCc1ccc2cccc(O)c2n1)N1CCN(C(=O)c2cc3cc(F)ccc3[nH]2)CC1",
    "Label": "no (0)"
  },
  {
    "Compound": "CCOc1nc(-c2ccccc2)cc2c(O)c(-c3nnco3)[nH]c(=O)c12",
    "Label": "no (0)"
  },
  {
    "Compound": "O=S(=O)(Nc1cc(F)cc(Cl)c1)c1ccc(-c2cnc(C3CC3)o2)cc1",
    "Label": "no (0)"
  },
  {
    "Compound": "O=c1n(CC2CO2)c(=O)n(CC2CO2)c(=O)n1CC1CO1 (stereo not drawn)",
    "Label": "no (0)"
  }
]

Prompt line: Look up the recorded call for CCC[CH2][Sn]([CH2]CCC)([CH2]CCC)[O]C(=O)CC in this test.
Response line: yes (1)

Prompt line: What do we get for C=CC1CC12C(=O)C1OC2(C)C2C(=O)c3cc4ccccc4cc3C(=O)C12 (stereo not drawn) ?
Response line: no (0)

Prompt line: What do we get for COc1cc(Nc2cn[nH]c2-c2ccc(Cl)cc2)cc(OC)c1OC ?
Response line: no (0)

Prompt line: What do we get for Clc1ccc2c(NCCCNc3nccc(Nc4ccc(Br)cc4)n3)ccnc2c1 ?
Response line: no (0)

Prompt line: What do we get for O=S(=O)([O-])c1ccc2c(c1)-c1nc-2nc2[n-]c(nc3nc(nc4[n-]c(n1)c1ccc(S(=O)(=O)[O-])cc41)-c1cc(S(=O)(=O)[O-])ccc1-3)c1ccc(S(=O)(=O)[O-])cc21.[Cu+2].[Na+] ?
Response line: no (0)

Prompt line: What do we get for COc1ccc(N(C)c2ncnc3occ(C)c23)cc1 ?
Response line: yes (1)

Prompt line: What do we get for C/C(=C\CCc1ccoc1)CC/C=C(\C)CCCC1=CC(=O)OC1 ?
Response line: no (0)

Prompt line: What do we get for CNCCCn1cc(C2=C(c3cn(C)c4ccccc34)C(=O)NC2=O)c2ccccc21 ?
Response line: no (0)

* * *

tested on: HOP-92 NSCLC; test: NCI tumour cell line growth inhibition, 48 h
Overview of reported log10(TGI) across a group of molecules:
Field: value | Transform: log10 | Quantity: TGI | Unit: µM

[
  {
    "Molecule": "Cc1ccc2c(n1)C(=O)c1[nH]c3ccccc3c1C2=O",
    "Target system": "HOP-92 NSCLC",
    "log10(TGI)": 1.46
  },
  {
    "Molecule": "COC(=O)c1cc2c(cc1O)[C@@H](NC(C)=O)CCc1cc(OC)c(OC)c(OC)c1-2",
    "Target system": "HOP-92 NSCLC",
    "log10(TGI)": 0.94
  },
  {
    "Molecule": "CC/C(=C(/c1ccc(OCCN(C)C)cc1)c1ccc(OC(=O)CCCCC(=O)c2c(C)[nH]c(/C=C3\\N=C(c4ccc[nH]4)C=C3OC)c2C)cc1)c1ccccc1",
    "Target system": "HOP-92 NSCLC",
    "log10(TGI)": 0.80
  }
]

Prompt line: Under HOP-92 NSCLC: log10(TGI) value of COc1ccc2nc3ccc(OC)cc3c(S(=O)CCCl)c2c1 (centres undefined) ?
Response line: 1.03

Prompt line: What do we get for CC(=O)c1c2c(cc3c1CC1(Cc4ccccc4C1=O)C3)CCC2 (centres undefined) ?
Response line: 1.69

* * *

Overview of reported TGI across a group of compounds:
system: DU-145 prostate; assay: NCI tumour cell line growth inhibition, 48 h
Numeric only. Scale: µM

Reference set, count: 4
[
  {
    "Smi": "O=[N+]([O-])c1ccc(/C=N/n2c(CO)nc3ccccc32)o1",
    "Target system": "DU-145 prostate",
    "Numeric value": 13.9
  },
  {
    "Smi": "COC(=O)/C=C/c1cc(O)c2oc(-c3ccc(O)c(O)c3)c(C(=O)OC)c2c1",
    "Target system": "DU-145 prostate",
    "Numeric value": 12
  },
  {
    "Smi": "C=C(C)[C@@]12OC3(/C=C/C=C/CCCCC)O[C@@H]1[C@@H]1[C@@H]4O[C@]4(CO)[C@@H](O)[C@]4(O)C(=O)C(C)=C[C@H]4[C@@]1(O3)[C@H](C)[C@H]2OC(=O)c1ccccc1",
    "Target system": "DU-145 prostate",
    "Numeric value": 2.11
  },
  {
    "Smi": "COc1cc(C(=O)c2cc(C)c3[nH]c4ccc(Cl)cc4c3c2C)cc(OC)c1OC",
    "Target system": "DU-145 prostate",
    "Numeric value": 3.6
  }
]

Now consider the entry below.
Prompt line: Under DU-145 prostate: TGI value of CN(C)Cc1cc(C(=O)/C=C/c2ccc(Cl)cc2)cc(CN(C)C)c1O ?
Response line: 24.4

* * *

system: EKVX NSCLC; test: NCI tumour cell line growth inhibition, 48 h
Property measured: GI50

[
  {
    "Molecule": "CC(C)=C[C@@H]1C[C@H](C)[C@H]2CC[C@H](C)C3=C2[C@](O)(OC3=O)[C@]1(C)O",
    "Target system": "EKVX NSCLC",
    "Result": "> 100 µM"
  }
]

Prompt line: # input molecule: CNCCNc1c2c(c(NCCNC)c3c(CN(C)C)c[nH]c13)C(=O)c1ccccc1C2=O ; wanted: its GI50
Response line: 2.13 µM

Prompt line: What do we get for CC(=O)OC1Oc2ccccc2-c2oc(=O)c(-c3cc(=O)oc4cc(O)ccc34)cc21 (configuration not stated) ?
Response line: 17.5 µM

Prompt line: What do we get for COc1ccc(C(=O)c2cc(OC)c(C)c(OC)c2)cc1OC(=O)CCl ?
Response line: 3.6 µM

Prompt line: What do we get for Cc1nc(N)sc1-c1ccnc(Nc2ccc(N3CCOCC3)cc2)n1 ?
Response line: 4.02 µM

Prompt line: What do we get for Cc1c2cccnc2c(C)c2c1c1cc(CO)ccc1n2C ?
Response line: 1.4 µM

Prompt line: What do we get for O=S(=O)(Nc1cc(F)cc(Cl)c1)c1ccc(-c2cnc(C3CC3)o2)cc1 ?
Response line: 4.86 µM

* * *

test system: OVCAR-3 ovarian; test: NCI tumour cell line growth inhibition, 48 h
Property measured: TGI (µM)
Numeric only. Scale: µM

[
  {
    "Molecule": "COc1ccc(C(=O)c2cc(OC)c(C)c(OC)c2)cc1OC(=O)CCl",
    "TGI [µM]": 10.8
  },
  {
    "Molecule": "C=CC(Br)(CBr)CCC(Cl)C(C)C (centres undefined)",
    "TGI [µM]": 4.13
  },
  {
    "Molecule": "Oc1ccc(Cl)cc1Cc1cc(Cl)cc(Cl)c1O",
    "TGI [µM]": 16.5
  }
]

Now consider the entry below.
Prompt line: # input molecule: CN(C)Cc1cc(C(=O)/C=C/c2ccc(Cl)cc2)cc(CN(C)C)c1O ; wanted: its TGI
Response line: 10.8

* * *

system: NCI-H460 lung
The categories you may choose from are active, inactive

[
  {
    "Compound": "COc1ccc(N2C(=O)C(c3ccccc3)(c3ccccc3)C23C(=O)N(C)c2ccccc23)cc1 (centres undefined)",
    "Label": "inactive"
  }
]

Prompt line: Look up the recorded call for CC(C)(C)C(=O)OCOP(=O)(OCOC(=O)C(C)(C)C)C1CCCN(O)C1=O (centres undefined) in this test.
Response line: inactive

* * *

Overview of reported TGI across a group of molecules:
tested on: MALME-3M melanoma; experiment: NCI tumour cell line growth inhibition, 48 h
Numeric only. Scale: µM

Reference set, count: 5
[
  {
    "Molecule": "C=CCNC1=C2C[C@@H](C)C[C@@H](OC)[C@H](OC(=O)CCCCN)[C@H](C)/C=C(\\C)[C@@H](OC(N)=O)[C@H](OC)/C=C\\C=C(/C)C(=O)NC(=CC1=O)C2=O",
    "TGI [µM]": 19.6
  },
  {
    "Molecule": "COC(=O)Cc1cc(O)c(C/C=C(\\C)CC/C=C(\\C)C(O)C(=O)C=C(C)C)cc1O (centres undefined)",
    "TGI [µM]": 48.6
  },
  {
    "Molecule": "NCCCNc1nc2ccccc2c2c(=O)c3cc(OC(F)(F)F)ccc3sc12",
    "TGI [µM]": 3.08
  },
  {
    "Molecule": "CC(=O)OC1CCC2(C)C3CCC4(C)C(c5ccc(=O)oc5)CC5OC54C3CCC2(O)C1 (centres undefined)",
    "TGI [µM]": 3.21
  },
  {
    "Molecule": "COc1ccc(C2CC(=O)CC(c3ccc(OC)cc3)C23C(=O)NC(=O)NC3=O)cc1 (centres undefined)",
    "TGI [µM]": 73
  }
]

Now consider the entry below.
Prompt line: # input molecule: Cc1cc(N(CCC#N)CCC#N)ccc1/C(N=Nc1ccc([N+](=O)[O-])cc1)=N\NC(=O)c1cc(Cl)ccc1C(=O)c1ccccc1 ; wanted: its TGI
Response line: 31.1
